- measured-on: NADPH oxidase 5 (Homo sapiens)
- assay-explanation: NOX5-dependent H2O2 signal modulators, primary screen, NOX inhibitor project, cell-based, HEK293-NOX5, Amplex Red fluorescence (AID 1161)
- run-conditions: HEK293-NOX5, ionomycin, 45 min, higher = more signal
assay-metric: z-score

q: # value lookup — system NADPH oxidase 5 (Homo sapiens), readout z-score, item C#CCNC(=O)[C@H](Cc1ccccc1)NC(=O)[C@@H](N=[N+]=[N-])C(C)C
a: 0.323

q: # value lookup — system NADPH oxidase 5 (Homo sapiens), readout z-score, item CC(C)N1C(=O)[C@@]2(c3ccc([N+](=O)[O-])cc3)CC(=O)N(C3CCCCC3)[C@@H]2c2ccc(CO)cc21
a: -0.316

q: # value lookup — system NADPH oxidase 5 (Homo sapiens), readout z-score, item CC[C@H]1C2=C3C(CC[C@H]4C(OCc5ccc(F)cc5C(F)(F)F)OC[C@](C)([C@@H]34)N(C(=O)OC(C)(C)C)C2)C2COC(=O)OCC21 (some centres undefined)
a: -1.5

q: # value lookup — system NADPH oxidase 5 (Homo sapiens), readout z-score, item CCOc1cc(C(O)C2C=CC3C(=O)N(C4CCCCC4)C(=O)C3N2Nc2ccc(OC)cc2)ccc1O (centres undefined)
a: -2.46

###

- assay-explanation: mitochondrial membrane potential change in A549 cells, profiling panel, cell-based, JC-1 fluorescence, basal, 24 h, 100 nL (AID 1138);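 note: A549 lung adenocarcinoma cells under basal conditions with no added stimulus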
- run-conditions: higher = more signal
assay-metric: z-score
Answer with a number only.

q: Quick one: z-score of COc1ccc([Si](C)(C)[C@H]2[C@H](CCn3cc([C@H](O)c4ccccc4)nn3)O[C@@]3(C(=O)N(Cc4ccc(N5CCC5=O)cc4)c4ccccc43)[C@@H]2C)cc1 ?
a: 0.527

q: Quick one: z-score of C[C@H]1C2=C3C(CC[C@H]4C(OCc5ccc(F)cc5C(F)(F)F)OC[C@](C)([C@@H]34)N(C(=O)OC(C)(C)C)C2)C(CO)C1CO (stereo partly specified) ?
a: 1.31

q: Quick one: z-score of COC(=O)[C@@]1(Cc2ccccc2)[C@H]2c3cc(C(=O)N4CCCC4)n(Cc4ccsc4Br)c3C[C@H]2CN1C(=O)c1ccccc1 ?
a: 1.88

q: Quick one: z-score of Cc1ccc(S[C@]2(C(=O)NCC(F)(F)F)CC(=O)N(Cc3ccccc3)[C@@H]2c2ccc(CO)cc2)cc1 ?
a: -0.483

q: Quick one: z-score of CC(=O)N1Cc2ccccc2C[C@]2(N=C(c3ccc(OCCCO)cc3)O[C@@H]2c2ccccc2)C1=O ?
a: 0.638

q: Quick one: z-score of CCOC(=O)C[C@H]1[C@H](OC(=O)c2ccc(-c3ccccc3)cc2)[C@@H](NC(=O)c2ccc3ccccc3c2)c2cc(OCCCO)ccc2N1C(=O)c1ccc2ccccc2n1 ?
a: 0.329

###

- measured-on: NADPH oxidase 4 (Homo sapiens) (UniProt Q9NPH5)
- Sequence (Q9NPH5 whole entry, looked up): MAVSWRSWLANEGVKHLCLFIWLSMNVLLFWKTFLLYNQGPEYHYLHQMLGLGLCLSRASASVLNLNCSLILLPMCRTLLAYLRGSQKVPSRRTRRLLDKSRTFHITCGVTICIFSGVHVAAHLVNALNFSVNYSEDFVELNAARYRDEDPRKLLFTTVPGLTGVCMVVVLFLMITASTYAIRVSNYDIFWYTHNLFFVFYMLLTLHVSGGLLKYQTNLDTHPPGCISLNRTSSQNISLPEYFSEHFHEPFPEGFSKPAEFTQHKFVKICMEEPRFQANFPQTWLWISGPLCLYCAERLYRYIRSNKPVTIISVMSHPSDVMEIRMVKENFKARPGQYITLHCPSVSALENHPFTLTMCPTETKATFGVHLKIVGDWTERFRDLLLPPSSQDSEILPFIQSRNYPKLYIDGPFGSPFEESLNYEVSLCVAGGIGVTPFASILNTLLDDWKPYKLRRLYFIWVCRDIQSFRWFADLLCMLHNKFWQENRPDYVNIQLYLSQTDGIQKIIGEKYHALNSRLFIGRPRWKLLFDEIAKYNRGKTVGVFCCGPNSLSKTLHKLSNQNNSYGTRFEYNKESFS
- assay-explanation: NOX4-dependent H2O2 signal modulators, primary screen, NOX inhibitor project, cell-based, HEK293-NOX4, tetracycline-induced, Amplex Red fluorescence (AID 1160)
- run-conditions: 45 min, higher = more signal, called active from +8 up or from −8 down
assay-metric: z-score
Answer with a number only.

q: Quick one: z-score of O=C1c2ccccc2[C@](Cc2ccccc2I)(C(=O)NCCN2CCOCC2)[C@H](c2ccc(CO)cc2)N1Cc1ccccc1 ?
a: 0.91

q: Quick one: z-score of COCCOC(=O)N1C(=O)[C@@]2(c3ccccc31)[C@H](C(=O)N1CCN(c3ncccn3)CC1)[C@H]1C(=O)O[C@H](c3ccccc3)[C@H](c3ccccc3)N1[C@@H]2c1ccc(OCCO)cc1 ?
a: 0.798

q: Quick one: z-score of O=C1OCC=C[C@H]2OC34C=CCN(c5ccc(Cl)cc5)C(=O)[C@H]3N(CCCCCO)C(=O)[C@@H]4[C@@H]12 (stereo not given in full) ?
a: 0.525

q: Quick one: z-score of CCCCN1CC=CC23O[C@@H]4C=CCOC(=O)[C@@H]4[C@H]2C(=O)N(C(C)CO)[C@@H]3C1=O (stereo not given in full) ?
a: 0.56

q: Quick one: z-score of CC[C@@H]1[C@H]2C3C(=O)N(CC)C(=O)C3CC(=O)[C@H]2[C@H](c2ccc(C)cc2)N1S(=O)(=O)c1ccc(C)cc1 (stereo not given in full) ?
a: 0.458

q: Quick one: z-score of CON(C)C(=O)C=C1C[C@@H](c2cccc(Cl)c2)O[C@@H](c2cccc(Cl)c2)O1 ?
a: -0.986

q: Quick one: z-score of COC(=O)C(CC#Cc1ccc2c(c1)[C@]1(C(=O)N2)[C@H](C(=O)O)[C@H]2C(=O)O[C@H](c3ccccc3)[C@H](c3ccccc3)N2[C@@H]1c1ccccc1OCCO)C(=O)OC ?
a: -1.33

q: Quick one: z-score of C=C(CCCC)C(=O)CC[C@@H](OC(=O)c1ccccc1-c1ccccc1C(=O)O)c1cccc(OCCO)c1 ?
a: -0.351

q: Quick one: z-score of C=C(CCCC)C(=O)CC[C@@H](OC(=O)c1cccnc1)c1ccccc1OCCO ?
a: -0.158

q: Quick one: z-score of CCOC(=O)[C@H]1C/C=C/C[C@H](C(=O)OCC)C(=O)O[C@H]2[C@@H](OC)O[C@H](CO)[C@@H](OC(=O)CCc3ccccc3)[C@@H]2OC1=O ?
a: 0.273

###

- Tested on: XIP peptide (Xip251-270)
- assay-explanation: small-molecule binders of XIP peptide, primary screen, biochemical, small-molecule microarray, fluorescence 635/667 nm, 0.5 µg/mL protein (AID 1183)
- run-conditions: small-molecule microarray binding, fluorescence 635 nm; higher = more signal
assay-metric: composite z-score

q: Quick one: composite z-score of O=C1OCC=C[C@H]2OC34C=CCN(Cn5nnc6ccccc65)C(=O)[C@H]3N(CCCCCCO)C(=O)[C@@H]4[C@@H]12 (stereo not given in full) ?
a: -0.714

q: Quick one: composite z-score of C=C(C(=O)CC[C@H](OC(=O)c1cccnc1)c1cccc(OCCO)c1)C(C)C ?
a: 0.183

q: Quick one: composite z-score of O=C(O)[C@]1(Cc2ccccc2)N=C(c2ccc(OCCCO)cc2)O[C@@H]1c1ccccc1 ?
a: 0.48

q: Quick one: composite z-score of CO[C@H]1O[C@H](CO)[C@@H](OC(=O)Nc2ccc(Oc3ccccc3)cc2)[C@H](OC(=O)Nc2ccccc2-c2ccccc2)[C@@H]1OC(=O)Nc1ccccc1-c1ccccc1 ?
a: 0.759

q: Quick one: composite z-score of CCOC(=O)C[C@H]1[C@H](OC(=O)Cc2ccc3c(c2)OCO3)[C@@H](NC(=O)Cc2ccc(OC)cc2)c2cc(OCCCO)ccc2N1C(=O)c1ccccc1 ?
a: -0.0883

###

- assay-explanation: fission yeast growth modulation, primary screen, strain 972, OD600, 24 h, no modulator (AID 1090);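 note: basal condition with compound alone and no growth modifier present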
- run-conditions: S. pombe 972 growth, higher = more signal, called active from +8 up or from −8 down
assay-metric: z-score
Answer with a number only.

q: Quick one: z-score of NC(=O)N1C(=O)C2C(C1=O)C1C=C(CCCO)C2C(c2cccs2)N1Cc1cc2c(cc1Br)OCO2 (stereo unspecified) ?
a: -0.498

q: Quick one: z-score of C=CCC(OC(C)=O)[C@@H]1[C@@H](N(Cc2ccc(-c3ccccc3)cc2)C(=O)c2cccc3ccccc23)c2cc(OCCCO)ccc2N1C(=O)Cc1ccc2ccccc2c1 (stereo partly specified) ?
a: -0.691

q: Quick one: z-score of C#CCNC(=O)[C@H](Cc1ccccc1)NC(=O)[C@@H](N=[N+]=[N-])C(C)C ?
a: 0.139

q: Quick one: z-score of CO[C@H]1O[C@H](CO)[C@@H](OC(=O)Nc2ccccc2-c2ccccc2)[C@H](OC(=O)Nc2ccc3c(c2)OCO3)[C@@H]1OC(=O)Nc1ccc2c(c1)OCO2 ?
a: 0.798

q: Quick one: z-score of CC(C)(C)OC(=O)CC[C@]1(C(=O)NCCN2CCOCC2)N=C(c2ccc(OCCCO)cc2)O[C@H]1c1ccccc1N=[N+]=[N-] ?
a: -0.437

q: Quick one: z-score of CCOC(=O)[C@H]1C/C=C/C[C@H](C(=O)OCC)C(=O)O[C@H]2[C@@H](OC)O[C@H](CO)[C@@H](OC(=O)Nc3ccc(OC)cc3)[C@@H]2OC1=O ?
a: -0.0368

###

For each record, write down the corresponding composite z-score.
- Test system: PRMT1 (protein arginine N-methyltransferase 1)
- assay-explanation: PRMT1 binders on small-molecule microarrays, primary screen, biochemical, small-molecule microarray, 635 nm fluorescence (AID 1088);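 note: binding of Prmt1 protein to compounds spotted on small-molecule microarray slides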
- run-conditions: small-molecule microarray binding, higher = more signal
Answer with a number only.

q: Quick one: composite z-score of CCOC(=O)C[C@H]1[C@H](OC(=O)c2ccc(-c3ccccc3)cc2)[C@@H](NC(=O)C2CCCCC2)c2cc(OCCCO)ccc2N1C(=O)c1ccccc1 ?
a: 0.5

q: Quick one: composite z-score of C[C@]12C(=O)N(CCCCCCO)[C@@H]3C(=O)N(c4ccc(Cl)cc4)CC=CC31O[C@@H]1/C=C\CCCOC(=O)C12 (some centres not stated) ?
a: 0.807

q: Quick one: composite z-score of CCCCN1CC=CC23O[C@@H]4/C=C\CCC(C)OC(=O)C4[C@H]2C(=O)N(CCCCCCO)[C@@H]3C1=O (some centres not stated) ?
a: -0.969

q: Quick one: composite z-score of O=C1O[C@@H](c2ccccc2)[C@@H](c2ccccc2)N2[C@@H](c3ccccc3OCCO)[C@]3(C(=O)Nc4ccccc43)[C@@H](C(=O)NC[C@H](O)c3ccccc3)[C@H]12 ?
a: 1.4

q: Quick one: composite z-score of C=C1C2CC3C(=C4C(CO[C@@H]4[C@H]4CCCN4S(=O)(=O)c4ccccc4[N+](=O)[O-])C4C(=O)N(C)C(=O)C34)CC2C(=O)N1C (some centres not stated) ?
a: 0.627

q: Quick one: composite z-score of Cc1ccc(F)cc1S(=O)(=O)N[C@@H]1CCN(Cc2ccc(Oc3ccccc3)cc2)C1 ?
a: -0.434

q: Quick one: composite z-score of C=CCOC(=O)[C@H]1[C@@H]2C(=O)O[C@@H](c3ccccc3)[C@@H](c3ccccc3)N2[C@@H](c2ccc(OCCOC(=O)[C@H]3C[C@H]4C(=O)N[C@@H](Cc5ccccc5)C(=O)N4[C@H]3c3cccc(OCCO)c3)cc2)[C@]12C(=O)Nc1ccc(I)cc12 ?
a: 1.54
